# System Tested: T1, recombinant human CD40 (ECD)-his (human, UniProt P25942 21-193)
# T1 construct: Bought protein; also called hCD40(ECD)-his; TNFRSF5
# T1 sequence (P25942 21-193): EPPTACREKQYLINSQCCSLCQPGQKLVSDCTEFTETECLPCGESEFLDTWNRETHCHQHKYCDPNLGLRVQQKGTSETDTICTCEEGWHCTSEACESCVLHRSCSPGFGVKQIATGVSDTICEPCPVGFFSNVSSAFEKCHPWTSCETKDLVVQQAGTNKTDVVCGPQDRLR
# Experimental Details: ELISA, hCD40(ECD)-his coated
Metric: EC50 (µg/mL)
Express it in µg/mL; write the number only.

Known results for binders:
Binder	Readout Number
16A6 (mouse monoclonal antibody) (antibody, V domains shown) VH: EVQLEQSGPGLVKPSQSLSLTCSVTGYSITTNYHWNWIRQFPGNKLEWMGYIKYDGSNNYNPSLKNRISITRDTSKNQFFLKLNSVTTEDTATYYCARLDYWGQGTSVTVSS VL: DIVLTQSTLSLSVSLGDQASISCRSSQSLENSNGNTFLNWFLQKPGQSPQLLIYKVSNRFSGVLDRFSGTGSGTDLTLTISRVEAEDLGVYFCLQVTHVPFTFGSGTKLEIK	0.0131
92F6 (mouse monoclonal antibody) (antibody, V domains shown) VH: QVQLEQSGAEVVKPGASVKVSCTASGFNIKDTYMHWVKQRPEQGLEWIGRIDPANGNTNYDPKFQGKATITADTSSNTGYLQLSSLTSEDTAVYYCSRWGYDWYFDVWGAGTSVTVSS VL: DIVITQSTAIMSASPGEKVTITCSASSSVSYIHWFQQKPGTSPKLWIYTTANLASGVPARFSGSGSGTSYSLTISRMEAEDAATYYCQQRSNYPFTFGSGTKLEIK	0.0291
142F7 (mouse monoclonal antibody) (antibody, V domains shown) VH: EVQLEQSGAELVRPGTSVKVSCKASGYAFTNYLIEWGIQRPGQGLEWIGVINPGTGGTNYNEKFKDKATLTTDKSSSTAYMQLSSLTSDDSAVYFCARGGSGFAYWGQGTLVTVSA VL: DIVLTQTTSSLSASLGDRVTISCRASQDINNYLNWYQQKPDGTVKLLIYYTSRLHSGVPSRFSGSGSGTDYSLTISNLEQEDIATYFCQQGNTLPWTFGGGTKLEIK	0.0171

Okay, next one:
Ask: Name the recorded EC50 for 77D9 (mouse monoclonal antibody) (antibody, V domains shown) VH: QVKLEESGGGLVKPGGSLKLSCAASGFTFRNYAMSWVRQSPGERLEWVAEVSGSGYYTYYPDTVTGRFTISRDNANNTLYLEVSSLRSEDTAMYYCTSRAYWGQGTLVTVSA VL: IVMTQSPTLSLPVSLGDQASISCRSSQSIVLTNGNTYLEWYLQRPGQSPKLLIYKVSNRFSGVPDRFSGSGSGTDFTLKISRVEAEDLGVYYCFQGSHVPYTFGGGTKLEIK .
Result: 0.0214
